- Tested on: Streptococcus pneumoniae
- Method description: Antibacterial activity against Streptococcus pneumoniae 6303 by NCCLS method
- Assay type: functional
Property name: MIC (µg/mL)

1. C=CCN(C)[C@H]1C[C@@H](C)O[C@@H](O[C@@H]2[C@@H](C)[C@H](OC(=O)Cc3ccccn3)[C@@H](C)C(=O)O[C@H](CC)[C@@]3(C)OC(=O)N(CCCCn4cnc(-c5cccnc5)c4)[C@@H]3[C@@H](C)C(=O)[C@H](C)C[C@@]2(C)OC)[C@@H]1O	0.015
2. C=CCN(C)[C@H]1C[C@@H](C)O[C@@H](O[C@@H]2[C@@H](C)[C@H](OC(=O)Cc3ccccn3)[C@@H](C)C(=O)O[C@H](CC)[C@@]3(C)OC(=O)N(CCCCn4cnc5ccncc54)[C@@H]3[C@@H](C)C(=O)[C@H](C)C[C@@]2(C)OC)[C@@H]1O	0.125
3. C=CCN(C)[C@H]1C[C@@H](C)O[C@@H](O[C@@H]2[C@@H](C)[C@H](OC(=O)Cc3ccccn3)[C@@H](C)C(=O)O[C@H](CC)[C@@]3(C)OC(=O)N(CCCCn4cnc5ncccc54)[C@@H]3[C@@H](C)C(=O)[C@H](C)C[C@@]2(C)OC)[C@@H]1O	0.06
4. C=CCN(C)[C@H]1C[C@@H](C)O[C@@H](O[C@@H]2[C@@H](C)[C@H](OC(=O)Cc3ccccn3)[C@@H](C)C(=O)O[C@H](CC)[C@@]3(C)OC(=O)N(CCCCn4cnc(-c5cncnc5)c4)[C@@H]3[C@@H](C)C(=O)[C@H](C)C[C@@]2(C)OC)[C@@H]1O	0.03
